Taken from patent US12679839B2.

- study.target: CDK7/Cyclin H/MAT-1 complex (Homo sapiens, UniProt P50613)
- Construct: Human CDK7 (amino acids 1-346); His6 (N); TEV protease cleavage site (N); made in house; host or cells: baculovirus-SF9 insect cells
- Sequence (P50613 whole entry, the tested form may be a part): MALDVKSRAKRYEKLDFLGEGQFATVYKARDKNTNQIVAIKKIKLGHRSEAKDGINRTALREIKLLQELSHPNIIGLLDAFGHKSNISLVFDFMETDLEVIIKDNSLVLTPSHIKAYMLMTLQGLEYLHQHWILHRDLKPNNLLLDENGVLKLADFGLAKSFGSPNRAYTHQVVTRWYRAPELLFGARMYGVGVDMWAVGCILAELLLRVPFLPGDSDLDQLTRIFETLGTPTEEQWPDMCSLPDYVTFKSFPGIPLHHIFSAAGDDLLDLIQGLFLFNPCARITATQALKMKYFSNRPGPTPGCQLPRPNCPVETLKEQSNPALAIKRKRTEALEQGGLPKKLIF
- Sequence (P51946 whole entry partner, the tested form may be a part): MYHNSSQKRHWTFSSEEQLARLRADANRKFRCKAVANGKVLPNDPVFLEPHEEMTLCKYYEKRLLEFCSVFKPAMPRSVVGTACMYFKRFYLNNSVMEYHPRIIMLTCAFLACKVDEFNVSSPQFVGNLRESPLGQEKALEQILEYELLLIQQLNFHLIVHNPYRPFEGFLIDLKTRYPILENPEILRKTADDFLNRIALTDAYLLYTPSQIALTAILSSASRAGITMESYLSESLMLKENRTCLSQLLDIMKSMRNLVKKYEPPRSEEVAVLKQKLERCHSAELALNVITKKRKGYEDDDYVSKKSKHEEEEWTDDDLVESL
- Sequence (P51948 whole entry partner, the tested form may be a part): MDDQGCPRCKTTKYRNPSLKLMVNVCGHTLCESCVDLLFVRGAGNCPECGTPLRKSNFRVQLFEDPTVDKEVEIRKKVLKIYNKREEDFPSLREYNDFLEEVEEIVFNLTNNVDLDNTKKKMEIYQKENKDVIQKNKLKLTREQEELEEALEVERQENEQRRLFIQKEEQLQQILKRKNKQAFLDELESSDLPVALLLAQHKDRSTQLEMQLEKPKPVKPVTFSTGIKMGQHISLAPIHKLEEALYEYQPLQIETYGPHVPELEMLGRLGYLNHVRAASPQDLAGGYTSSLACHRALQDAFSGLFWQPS
- assay.notes: Flint assay, end-point fluorescence (5 nM CDK7/Cyclin H/MAT-1 complex)
- Type: biochemical
- conditions: read-out: CDK7 (5 nM) pIC50 (converted)
property.name: IC50 (nM)

| molecule | property.name | unit.abbreviation | number |
| --- | --- | --- | --- |
| C[C@@H]1Cc2cnc(NCc3ccn(C)n3)nc2CN1C(=O)[C@H]1CCN(C)C[C@@H]1c1cccc(OC(F)(F)F)c1 (relative stereo) | IC50 | nM | 6.76 |
| C[C@@H]1Cc2cnc(NCc3ccn(C)n3)nc2CN1C(=O)[C@H]1CCN(C)C[C@@H]1C(F)(F)F (relative stereo) | IC50 | nM | 8.91 |

a: C[C@@H]1Cc2cnc(NC3CCOCC3)nc2[C@H](C)N1C(=O)[C@H]1CCN(C)C[C@@H]1c1ccccc1 (single isomer, unassigned) [Compound 195b]
b: CO[C@H]1CC[C@H](Nc2ncc3c(n2)CN(C(=O)[C@@H]2CCN(C)C[C@H]2c2ccnc(C)c2)[C@H](C)C3)CC1 (relative stereo)
c: [2H]C([2H])(Nc1ncc2c(n1)CN(C(=O)[C@H]1CCN(C)C[C@@H]1c1ccccc1)[C@H](C)C2)c1ccccc1
Ascending sort, IC50. API: response body holds the labels in the requested order.
c, a, b
(c: 1.78 nM, a: 4.9 nM, b: 10 nM)

I: C[C@@H]1Cc2cnc(NCc3ccn(C)c3)nc2CN1C(=O)[C@H]1CCN(C)C[C@@H]1c1ccccc1
II: Cc1cccc([C@H]2CN(C)CC[C@@H]2C(=O)N2Cc3nc(Nc4cnn(C)c4)ncc3[C@@H]3C[C@@H]32)c1 (relative stereo)
III: C[C@@H]1Cc2cnc(NC3CCOCC3)nc2CN1C(=O)[C@H]1CCN(C)C[C@@H]1C (relative stereo)
Please list the entries, largest IC50 first. Use the labels to give the requested order.
III, II, I

a: [2H]C([2H])([2H])N1CC[C@H](C(=O)N2Cc3nc(NC4CCOCC4)ncc3C[C@H]2C)[C@@H](c2ccccc2)C1 (single isomer, unassigned)
b: Cc1cccc([C@@H]2CN(C)CC[C@H]2C(=O)N2Cc3nc(NCc4ccn(C)n4)ncc3C[C@H]2C)c1 (relative stereo)
Look at a and b . Which one has the lower recorded IC50 number? Refer to your chosen entry by its label in the reply.
a

###

- Tested on: RNA polymerase II Serine 5 phosphorylation (Rpb1 CTD), downstream substrate of CDK7
- assay.notes: Imaging-based cellular RNA PolII Ser5 phosphorylation assay in A549 cells
- Format: cell-based, human
- conditions: Homo sapiens, A549, 3 h, challenged with compound for 3 hours, read-out: pRNA polII Ser5 (A549) pIC50 (converted)
property.name: IC50 (nM)

| molecule | unit.abbreviation | number |
| --- | --- | --- |
| C[C@@H]1Cc2cnc(Nc3cnn4c3CCCC4)nc2CN1C(=O)[C@H]1CCN(C)C[C@@H]1c1ccccc1 [Compound 77] | nM | 316 |

a: C[C@@H]1Cc2cnc(NC3CC(C)(C)OC(C)(C)C3)nc2CN1C(=O)[C@H]1CCN(C)C[C@@H]1c1ccccc1 [Compound 24]
b: C[C@@H]1Cc2cnc(N[C@H]3CCOC(C)(C)C3)nc2CN1C(=O)[C@H]1CCN(C)C[C@@H]1c1ccccc1 (relative stereo) [Compound 39]
Please indicate which has the smaller reported IC50: a , or b . Pick one and reply with its label.
a
(a: 126 nM, b: 398 nM)
